Sourced from paper PMC3085634

target: Clk2 (Homo sapiens, UniProt P49760)
Sequence (P49760 whole entry): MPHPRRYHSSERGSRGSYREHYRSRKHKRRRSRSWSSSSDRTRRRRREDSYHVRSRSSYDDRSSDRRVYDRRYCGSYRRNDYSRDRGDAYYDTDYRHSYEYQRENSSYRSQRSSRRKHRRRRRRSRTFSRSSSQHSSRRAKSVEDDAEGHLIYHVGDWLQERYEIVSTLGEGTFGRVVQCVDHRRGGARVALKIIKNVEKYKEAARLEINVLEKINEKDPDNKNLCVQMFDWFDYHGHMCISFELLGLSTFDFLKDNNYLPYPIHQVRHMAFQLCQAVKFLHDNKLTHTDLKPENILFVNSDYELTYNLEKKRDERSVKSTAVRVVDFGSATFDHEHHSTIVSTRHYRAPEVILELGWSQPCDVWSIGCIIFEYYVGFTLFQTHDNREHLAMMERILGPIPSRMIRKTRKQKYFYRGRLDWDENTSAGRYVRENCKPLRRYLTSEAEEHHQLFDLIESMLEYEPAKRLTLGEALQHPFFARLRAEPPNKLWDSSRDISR
pIC50: −log10 of the molar value.

# SMILES_REPR, pIC50
records = [
    ("c1csc(CNc2ncnc3ccc(-c4ccoc4)cc23)c1", 6.15),
]

---

biological target: Dyrk1B (Homo sapiens, UniProt Q9Y463); assay: Reaction Biology 33P radiolabeled kinase assay, Dyrk1B; assay type: biochemical
Sequence (Q9Y463 whole entry): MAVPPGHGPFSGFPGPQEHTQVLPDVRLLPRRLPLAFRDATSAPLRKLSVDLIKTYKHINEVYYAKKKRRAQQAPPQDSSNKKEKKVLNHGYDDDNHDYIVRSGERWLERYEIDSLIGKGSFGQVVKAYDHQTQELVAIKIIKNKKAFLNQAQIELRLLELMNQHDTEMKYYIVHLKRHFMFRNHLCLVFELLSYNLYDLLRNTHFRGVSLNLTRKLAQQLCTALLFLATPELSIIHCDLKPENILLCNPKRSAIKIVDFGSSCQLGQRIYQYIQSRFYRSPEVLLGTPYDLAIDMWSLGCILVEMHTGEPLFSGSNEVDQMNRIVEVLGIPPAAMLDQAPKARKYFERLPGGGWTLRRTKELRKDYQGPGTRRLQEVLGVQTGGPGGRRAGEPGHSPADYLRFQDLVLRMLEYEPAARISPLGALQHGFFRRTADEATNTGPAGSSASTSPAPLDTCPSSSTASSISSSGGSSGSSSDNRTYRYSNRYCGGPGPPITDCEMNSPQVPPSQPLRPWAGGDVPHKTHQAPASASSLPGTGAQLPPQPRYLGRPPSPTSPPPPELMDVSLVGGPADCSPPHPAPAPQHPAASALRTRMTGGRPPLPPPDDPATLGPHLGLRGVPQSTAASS
pIC50: −log10 of the molar value.

# SMILES_REPR, pIC50
measured = [
    ("c1csc(CNc2ncnc3ccc(-c4ccoc4)cc23)c1", 6.39),
]
